- measurementNotes: A CellTox Green Cytotoxicity Assay to monitor cytotoxicity in HepG2 cells - 40 hour (AID 1224879); further: on the % scale 0 is the no-effect control and ±100 the full control effect; nearly all actives have a fitted effect of over 40% in size
- experimentalConditions: CellTox Green fluorescence; series mostly up to 76.8 µM
Records with an inconclusive call do not appear. Calls of active or inactive are those of the source. The call rests on the fitted dose curve; in most records, active means well fitted activation curve with a large enough effect in the repeat runs; inconclusive means weak or mixed curves; inactive means flat fitted curve, though single readings scatter.
measurementKind: cytotoxicity increase

Sample records with cytotoxicity increase:
Cc1nc(-c2ccc(OCC(C)C)c(C#N)c2)sc1C(=O)O    inactive
Cc1ncc(CSSCc2cnc(C)c(O)c2CO)c(CO)c1O    inactive
CC(C)c1ccc2oc3nc(N)c(C(=O)O)cc3c(=O)c2c1    inactive
COc1ccc(NC(C)=O)cc1    inactive
C=CCSCC1Nc2cc(Cl)c(S(N)(=O)=O)cc2S(=O)(=O)N1 (configuration not stated)    inactive
Nc1cc(C(Cl)=C(Cl)Cl)c(S(N)(=O)=O)cc1S(N)(=O)=O    inactive
CCC(C(=O)NC(N)=O)c1ccccc1 (configuration not stated)    inactive
NS(=O)(=O)c1cc(C2(O)NC(=O)c3ccccc32)ccc1Cl (configuration not stated)    inactive
N[C@@H](CS)C(=O)O    inactive
CC(C)=CC(=O)O    inactive

Form: compound = CN(C)C(=O)Nc1ccccc1 ; cytotoxicity increase = inactive

Noted for Cn1ccc2cc3c(cc21)CCN3C(=O)Nc1cccnc1 : its cytotoxicity increase reads -12.1% [at 15.8 µM] (inactive)

Query CC(C)(O)c1ccccc1 yields cytotoxicity increase of inactive

Value of cytotoxicity increase reported for the compound C(=C(c1ccccc1)c1ccccc1)c1ccccc1 is inactive

get_value(item= C1COCCO1 , readout=cytotoxicity increase) returns inactive

Record CCn1cc(C(=O)O)c(=O)c2cc(F)c(N3CCN(C)CC3)cc21 . Reported cytotoxicity increase: -14.4% [at 15.8 µM] (inactive)

The compound OC[C@H]1O[C@@H]2O[C@H]3[C@H](O)[C@@H](O)[C@@H](O[C@H]4[C@H](O)[C@@H](O)[C@@H](O[C@H]5[C@H](O)[C@@H](O)[C@@H](O[C@H]6[C@H](O)[C@@H](O)[C@@H](O[C@H]7[C@H](O)[C@@H](O)[C@@H](O[C@H]8[C@H](O)[C@@H](O)[C@@H](O[C@H]9[C@H](O)[C@@H](O)[C@@H](O[C@H]1[C@H](O)[C@H]2O)O[C@@H]9CO)O[C@@H]8CO)O[C@@H]7CO)O[C@@H]6CO)O[C@@H]5CO)O[C@@H]4CO)O[C@@H]3CO showed cytotoxicity increase equal to inactive

The reported cytotoxicity increase of the compound CC(=O)NC(Cc1ccccc1)C(=O)O (configuration not stated) was inactive

Data point: CCCCC1CCCCC(=O)O1 (configuration not stated) ; cytotoxicity increase = inactive

Input CCCCc1ccc(N)cc1 . Output cytotoxicity increase: inactive
